Target: Fc-hMASP-2A-CCS (human) [IgG part: P01857]
Sequence (P01857 other isoform, or with tags, fused parts or gaps limits assumed, form in doubt): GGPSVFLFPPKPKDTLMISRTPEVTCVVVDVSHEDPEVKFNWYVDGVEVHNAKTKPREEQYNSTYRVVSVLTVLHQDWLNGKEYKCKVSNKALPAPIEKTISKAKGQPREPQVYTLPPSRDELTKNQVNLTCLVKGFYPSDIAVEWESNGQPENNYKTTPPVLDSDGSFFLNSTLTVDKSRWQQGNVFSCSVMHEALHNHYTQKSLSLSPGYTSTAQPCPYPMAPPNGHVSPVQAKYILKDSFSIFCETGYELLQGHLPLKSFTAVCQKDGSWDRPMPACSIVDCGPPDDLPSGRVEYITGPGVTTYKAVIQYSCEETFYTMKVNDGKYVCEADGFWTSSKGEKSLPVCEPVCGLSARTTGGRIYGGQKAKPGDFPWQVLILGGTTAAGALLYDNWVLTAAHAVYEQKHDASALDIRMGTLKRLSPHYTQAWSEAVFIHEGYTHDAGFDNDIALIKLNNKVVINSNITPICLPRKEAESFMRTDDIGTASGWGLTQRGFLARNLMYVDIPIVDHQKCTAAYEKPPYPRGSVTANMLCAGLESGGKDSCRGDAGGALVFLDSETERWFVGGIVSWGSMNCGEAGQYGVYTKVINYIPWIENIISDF
Experiment: ELISA, plate coated with 1 ug/mL Fc-hMASP-2A-CCS

>  <BINDER>
murine anti-human MASP-2 monoclonal antibody 136 (antibody, V domains shown) VH: QVQLQQSGAELAKPGASVKMSCKASGNTFTNYWMHWIKQRPGQGLEWVGYINPNTGYTDFNQKFKDKATLTADKSSTTAYMQLISLTSEDSTVYYCTLQLGRNFDYWGQGTTLTVSS VL: DIVLTQSPASLGVSLGQRATISCRASQSVSSSRSTYIHWYQQKPGQPPKLLIKYSSNLESGVPARFSGGGSGTDFTLNIHPVEAEDTATYYCHQSWEIPYTFGGGTKLEIR

>  <EC50 [pM]>
143

$$$$
>  <BINDER>
murine anti-human MASP-2 monoclonal antibody 124 (antibody, V domains shown) VH: DVQLQESGPGLVKPSQSLSLTCTVTGYSITSDYAWNWIRQFPGNKLEWMGYISYSGRTSYNPSLKSRLSITRDTSKNQFFLQLTSVTTEDTATYYCARHYGDFWGQGTTLTVSS VL: DIVMTQSQKFMSTSVGDRVSVTCKASQNVDTNVAWFQQKPGQSPKPLIYSASYRYSGVPDRFTGSGSGTDFTLTISNVQSEDLANYFCQQYNSYPSTFGSGTKLEIK

>  <EC50 [pM]>
182

$$$$
>  <BINDER>
murine anti-human MASP-2 monoclonal antibody 100 (antibody, V domains shown) VH: DVQLVESGGGLVQPGGSRKLSCAASGFTFSNFGIHWVRQAPEKGLEWVAYISSGGSAVFYADTVKGRFTISRDNSKNTLFLQMTSLRSEDTAIYYCAKSDRYFDYWGQGTTLTVSS VL: DIVLTQSPASLAVSLGQRATISCRASQSVSSSSYRYIHWYQQKPGQPPRLLIKYASNLESGVPARFSGSGSGTDFTLNIHPVEEEDTATYYCQHSWETPWTFGGGTKLEIK

>  <EC50 [pM]>
173

$$$$
>  <BINDER>
murine anti-human MASP-2 monoclonal antibody 115 (antibody, V domains shown) VH: DVQLVESGGGLVQPGGSRKLSCAASGFTFSSFGMHWVRQAPEKGLEWVAYISSGSSSFFYADTVKGRFTISRDNPKNTLFLQMTSLRSEDTAMYYCARGDRNFDVWGAGTTVTVSS VL: DIVLTQSPASLAVSLGQRATISCRASQSVTSSRYSYMHWFQQKPGQPPNLLIKHASNLESGVPARFSGSGSGTDFTLNIHPVEEDDTATYYCQHSWEVPWTFGGGTKLEIK

>  <EC50 [pM]>
151

$$$$
>  <BINDER>
murine anti-human MASP-2 monoclonal antibody 120 (antibody, V domains shown) VH: DVQLQESGPGLVKPSQSLSLTCTVTGYSITSDYAWSWIRQFLRNKLEWMGYISYSGRTSYNPSLKSRISITRDTSKNQFFLQLNSVTTEDTATYFCARLITGGDYWGQGTSVTVSS VL: DIVMTQSQKFMSTSVGDRVSVTCKASQNVGINVVWYQQKPGQSPKALIYSASYRFSGVPDRFTGSGSGTDFTLTISNVQSEDLAEYLCLQYDINPLTFGAGTKLELK

>  <EC50 [pM]>
160

$$$$
>  <BINDER>
murine anti-human MASP-2 monoclonal antibody 126 (antibody, V domains shown) VH: DVQLVESGGGLVQPGGSRKLSCVASGFTFSSFGMHWVRQAPEKGLEWVAYISSGSSSSFYVDTVKGRFTISRDNPKNTLFLQMTSLRSEDTAMYYCARGDRNFEVWGAGTTVTVSS VL: DIVLTQSPASLAVSLGQRATISCRASQSVSSSRYSYMHWFQQKPGQPPNLLIKHASNLESGVPARFSGSGSGTDFTLNIHPVEEEDTATYYCQQSWEVPWTFGGGTKLEIK

>  <EC50 [pM]>
161

$$$$
>  <BINDER>
murine anti-human MASP-2 monoclonal antibody 60 (antibody, V domains shown) VH: QVQLQQSGAELMKPGASVKISCKATGYPFSTYWIEWVKQRPGHGLEWIGEILPGSDNTNYNEKFKGKATFTADTSSNTAYMQLSSLTSEDSAVYYCARRTTATRAWFVYWGQGTLVTVSA VL: DIVMSQSPSSLAVSVGEKVTMSCKSSQSLLYSSNQKNYLAWYQQKPGQSPKLLIYWASTRESGVPDRFTGSGSGTDFTLTISSVRAEDLAVYYCQHYYTYPWTFGGGTNLEIK

>  <EC50 [pM]>
149

$$$$
